Tested on: anti-desmoglein-3 scFv antibody binding to human DSG3
assay-notes: blockers of pathogenic pemphigus antibody–desmoglein-3 binding – biochemical, validation compound set, bead-based, flow cytometry, pilot screen (AID 588368);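 also: signal is the median channel fluorescence of bead-bound GFP antibody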
test-conditions: Protein G beads, DSG3-Fc, scFv-GFP binding, at 10 µM, stronger effect = lower value
quantity-kind: binding (% of control) (%)
Respond numerically; units are % and should not be typed.

For orientation, consider the following solved cases.
- COc1cc(CNc2nnnn2C)ccc1OCc1ccc(F)cc1Cl: 104
- C[C@@H]1CCC[C@H](C)N1NC(=O)c1ccc(Cl)c(S(N)(=O)=O)c1: 105
- Cc1ccc(N2C(=O)c3ccccc3C2=O)cc1C: 101
- Cn1cc(C2N3CC4(C)CN2CC(C)(C3)C4=O)c2ccccc21 (stereo unspecified): 95.1
- COc1ccc(C2CC(c3ccc([N+](=O)[O-])cc3)=NN2C(=O)c2ccccc2)cc1OC (stereo unspecified): 92.9
- C=C(C)C(=O)Nc1ccc(NC(C)C)cc1: 95.1
- C[C@]12CCC(=O)C=C1[C@H](O)C[C@@H]1[C@@H]2[C@@H](O)C[C@@]2(C)[C@H]1CC[C@]2(O)C(=O)CO: 104
- CC(C)c1ccc(NC(=O)CNS(=O)(=O)c2ccc(F)cc2)cc1: 100
- COc1cc(C(=O)NCCCCCC(=O)O)cc(OC)c1OC: 101
- O=C(/C=C/Sc1ccccc1)c1ccccc1: 103

Which binding (% of control) is reported for this molecule? `O=C1CC[C@@H](CN(Cc2ccccc2)Cc2cn[nH]c2-c2cc3ccccc3o2)N1`
101
